Reported Drug discrimination effect is given for each of the following compounds.
Test system: Rattus norvegicus
Test: Drug discrimination effect of compound in rats, expressed as percent of rats choosing the cocaine lever at dose 3 mg/kg (ip)
Type: functional
Return type: number; implicit unit %.

Observe how each entry below is paired with its result.
# compound, measurement
records = [
    ("CN1C2CCC1C(c1cc(C(C)(C)C)no1)C(c1ccc(Cl)cc1)C2 (stereo not drawn)", 50),
    ("Cc1ccc(C2CC3CCC(C2c2cc(-c4ccccc4)no2)N3C)cc1 (stereo not drawn)", 0),
]

// next item, Drug discrimination effect requested
Quick one: Drug discrimination effect for COc1ccc(-c2cc(C3C(c4ccc(Cl)cc4)CC4CCC3N4C)on2)cc1 (stereo not drawn) ?
0
